TARGET DESC: Protocollagen prolyl hydroxylase (Gallus gallus, UniProt P16924)
Construct: partially purified enzyme preparation derived from chick embryo; from tissue; host or cells: chick embryo (partially purified enzyme preparation)
Sequence (P16924 whole entry): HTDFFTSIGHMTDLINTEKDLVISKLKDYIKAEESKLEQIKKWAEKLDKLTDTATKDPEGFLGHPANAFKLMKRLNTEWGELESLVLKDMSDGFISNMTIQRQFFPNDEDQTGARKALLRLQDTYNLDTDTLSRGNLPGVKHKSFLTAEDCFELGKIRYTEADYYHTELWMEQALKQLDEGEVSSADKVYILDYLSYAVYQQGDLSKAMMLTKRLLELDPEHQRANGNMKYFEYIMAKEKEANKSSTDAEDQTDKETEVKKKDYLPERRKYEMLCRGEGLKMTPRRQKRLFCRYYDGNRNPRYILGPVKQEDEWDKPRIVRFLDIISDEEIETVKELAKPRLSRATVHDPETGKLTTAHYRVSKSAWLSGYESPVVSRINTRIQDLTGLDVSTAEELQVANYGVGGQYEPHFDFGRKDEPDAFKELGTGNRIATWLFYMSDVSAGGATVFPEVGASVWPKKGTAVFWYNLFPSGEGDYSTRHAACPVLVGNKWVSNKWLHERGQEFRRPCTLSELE
Sequence (P09102 23-515 partner): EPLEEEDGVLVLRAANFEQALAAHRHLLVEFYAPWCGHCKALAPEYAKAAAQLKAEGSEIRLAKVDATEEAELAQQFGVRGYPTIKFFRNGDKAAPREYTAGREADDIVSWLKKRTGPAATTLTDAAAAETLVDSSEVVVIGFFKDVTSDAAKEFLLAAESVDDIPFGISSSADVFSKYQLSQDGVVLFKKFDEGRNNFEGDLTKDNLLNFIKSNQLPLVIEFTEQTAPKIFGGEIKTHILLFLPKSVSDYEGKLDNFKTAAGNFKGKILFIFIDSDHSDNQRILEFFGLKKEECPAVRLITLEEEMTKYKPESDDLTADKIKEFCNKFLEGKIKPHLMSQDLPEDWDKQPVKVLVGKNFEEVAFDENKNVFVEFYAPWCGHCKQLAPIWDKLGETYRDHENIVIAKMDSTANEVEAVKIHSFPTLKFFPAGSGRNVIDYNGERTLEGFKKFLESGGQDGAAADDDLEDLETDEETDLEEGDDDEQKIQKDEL
TEST: Protocollagen prolyl hydroxylase inhibiting activity (method of R. E. Rhoads, substrate (Pro-Pro-Gly)5.4H2O)
Assay type: biochemical, chick embryo
CONDITIONS USED: 3.13 μM compound, 20 μg enzyme
MEASURED ENDPOINT: inhibition at 3.13 µM (%)
Numbers only, in %.

Observe how each entry below is paired with its result.
Request: Read the entry COC1=CC(=O)c2c(cc(OC)c(C)c2O)C1=O and write its reported inhibition at 3.13 µM.
Result: 40

Request: Assign inhibition at 3.13 µM to the following record: COC1=C(C)C(=O)c2c(cc(OC)c(C)c2O)C1=O
Result: 26

Request: Input COc1cc2c(c(O)c1C)C(=O)C(C)=CC2=O , output reported inhibition at 3.13 µM.
Result: 37

Continuing:
Request: For the compound COC1=C(C)C(=O)c2c(cc(O)c(C)c2O)C1=O , give its reported inhibition at 3.13 µM.
Result: 33
